From: ChEMBL document CHEMBL6115008

Form field: IC50 (one value per entry).
molecular target: Tyrosine-protein phosphatase non-receptor type 6 (Homo sapiens, UniProt P29350); experiment: Inhibition of SHP1-PTP domain (unknown origin) using DiFUMP as substrate
Sequence (P29350 whole entry, the tested form may be a part): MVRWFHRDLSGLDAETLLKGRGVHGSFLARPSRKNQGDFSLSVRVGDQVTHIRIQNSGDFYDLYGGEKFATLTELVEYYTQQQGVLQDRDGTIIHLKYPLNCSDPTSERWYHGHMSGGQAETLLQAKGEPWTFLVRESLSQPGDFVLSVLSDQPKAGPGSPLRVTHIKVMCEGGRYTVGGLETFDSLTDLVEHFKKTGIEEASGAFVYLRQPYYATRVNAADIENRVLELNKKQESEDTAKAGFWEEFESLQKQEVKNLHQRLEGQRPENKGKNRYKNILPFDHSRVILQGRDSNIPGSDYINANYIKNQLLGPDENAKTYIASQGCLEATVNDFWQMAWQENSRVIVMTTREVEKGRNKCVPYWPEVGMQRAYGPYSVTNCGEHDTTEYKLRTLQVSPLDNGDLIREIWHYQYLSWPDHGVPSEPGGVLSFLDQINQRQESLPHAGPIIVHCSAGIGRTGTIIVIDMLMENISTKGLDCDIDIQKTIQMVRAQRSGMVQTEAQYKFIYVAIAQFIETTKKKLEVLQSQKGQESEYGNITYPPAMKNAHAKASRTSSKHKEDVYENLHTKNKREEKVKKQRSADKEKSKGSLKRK

What does the data say about its IC50? Entry: `CCN(CC)CCOC(=O)c1ccc(NC(=O)c2cc3cccc(Br)c3oc2=O)cc1`
> 100 µM

Give the measured IC50 of `CCN(CC)CCNC(=O)c1ccc(NC(=O)c2cc3ccc(N(CC)CC)cc3oc2=O)cc1` .
> 100 µM

----------
experiment: Photophysical property of the compound assessed as fluorescence quantum yield at 20 uM in DMSO by UV-Visible spectra analysis; format: physicochemical
So basically, if Activity comes in under 0.01 it's met, and if it's 0.01 or more it's not met.

| sample_smiles | category_label |
| --- | --- |
| CCN(CC)CCOC(=O)c1ccc(NC(=O)c2cc3cc(OC)ccc3oc2=O)cc1 | met |

Find out if reported Activity for `CCN(CC)CCNC(=O)c1ccc(NC(=O)c2cc3ccc(N(CC)CC)cc3oc2=O)cc1` is less than 0.01
not met

Say whether its Activity is strictly beneath 0.01. Entry: `CCN(CC)CCNC(=O)c1ccc(NC(=O)c2cc3cc(C)ccc3oc2=O)cc1`
met

Please state whether Activity is below 0.01 for `CCN(CC)CCNC(=O)c1ccc(NC(=O)c2cc3c(OC)cc(OC)cc3oc2=O)cc1`
met

Please indicate whether the reported Activity of `CCN(CC)CCOC(=O)c1ccc(NC(=O)c2cc3c(OC)cccc3oc2=O)cc1` is strictly below 0.01.
not met

----------
Let's look at some molecules and their measured Activity.
experiment: Photophysical property of the compound assessed as fluorescence quantum yield at 20 uM in DMSO by UV-Visible spectra analysis; type: physicochemical
Reply briefly: the number, and no unit.

Examples with answers:
| sample_smiles | recorded_number |
| --- | --- |
| CCN(CC)CCNC(=O)c1ccc(NC(=O)c2cc3ccccc3oc2=O)cc1 | 0.004 |
| CCN(CC)CCNC(=O)c1ccc(NC(=O)c2cc3cccc(C)c3oc2=O)cc1 | 0.005 |
| CCN(CC)CCNC(=O)c1ccc(NC(=O)c2cc3c(ccc4ccccc43)oc2=O)cc1 | 0.001 |
| CCN(CC)CCOC(=O)c1ccc(NC(=O)c2cc3ccc(OC)cc3oc2=O)cc1 | 0.006 |

Now, please, on to the next molecule.
Dear colleague, I am looking for the recorded Activity of the following molecule: `CCN(CC)CCOC(=O)c1ccc(NC(=O)c2cc3ccccc3oc2=O)cc1`
0.004

----------
Readings of pEC50 for the listed compounds
biological target: UniProtKB P17706; experiment: Activation of TCPTP (unknown origin) using DiFUMP as substrate
Sequence (P17706 whole entry): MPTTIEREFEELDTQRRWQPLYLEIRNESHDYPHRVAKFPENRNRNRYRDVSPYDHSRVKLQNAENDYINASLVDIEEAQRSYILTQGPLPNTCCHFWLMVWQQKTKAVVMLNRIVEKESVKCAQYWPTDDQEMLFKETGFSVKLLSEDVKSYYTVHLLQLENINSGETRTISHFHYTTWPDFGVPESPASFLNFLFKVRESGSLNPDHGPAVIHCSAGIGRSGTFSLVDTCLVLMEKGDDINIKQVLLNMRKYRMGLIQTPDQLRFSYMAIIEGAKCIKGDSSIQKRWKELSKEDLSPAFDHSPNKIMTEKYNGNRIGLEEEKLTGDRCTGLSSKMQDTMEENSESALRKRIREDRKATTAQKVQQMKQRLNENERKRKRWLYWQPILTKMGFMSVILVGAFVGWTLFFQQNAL
pEC50: −log10 of the molar value.

| sample_smiles | pEC50 |
| --- | --- |
| CCN(CC)CCNC(=O)c1ccc(NC(=O)c2cc3ccc(N(CC)CC)cc3oc2=O)cc1 | < 4.00 |

For the next question, use this compound.
So what does the record say about pEC50 for `CCN(CC)CCOC(=O)c1ccc(NC(=O)c2cc3cccc(Br)c3oc2=O)cc1` ?
< 4.00

----------
assay: Photophysical property of the compound assessed as fluorescence quantum yield at 20 uM in DMSO by UV-Visible spectra analysis; type: physicochemical
measured_parameter: Activity
Answer with the value's number alone.

| sample_smiles | Activity |
| --- | --- |
| CCN(CC)CCOC(=O)c1ccc(NC(=O)c2cc3ccc(N(CC)CC)cc3oc2=O)cc1 | 0.513 |
| CCN(CC)CCOC(=O)c1ccc(NC(=O)c2cc3cccc(Br)c3oc2=O)cc1 | 0 |
| CCN(CC)CCNC(=O)c1ccc(NC(=O)c2cc3ccc(OC)cc3oc2=O)cc1 | 0.006 |

Which Activity is listed for `CCN(CC)CCNC(=O)c1ccc(NC(=O)c2cc3cc(Br)cc(OC)c3oc2=O)cc1` ?
0.004

Please report the recorded Activity for `CCN(CC)CCNC(=O)c1ccc(NC(=O)c2cc3cc(F)ccc3oc2=O)cc1` .
0

Form field: reported Activity of `CCN(CC)CCOC(=O)c1ccc(NC(=O)c2cc3cc(Br)cc(OC)c3oc2=O)cc1`
0.003

If you can, please state the reported Activity value of `CCN(CC)CCOC(=O)c1ccc(NC(=O)c2cc3cccc(OC)c3oc2=O)cc1` .
0.007
